Assay: Cytotoxicity against human MCF10A cells after 48 hrs by sulforhodamine B assay
Assay type: cell-based, MCF-10A
Below, each entry is listed alongside its reported GI50 at 48 h.
Please answer in the form of a number followed by its unit of measurement.

Record summary for CC(C)C[C@H]1OC(=O)[C@H](C(C)C)NC(=O)[C@H](C)OC(=O)[C@@H](C(C)C)NC(=O)[C@@H](CC2CCCCC2)OC(=O)[C@H]([C@@H](C)OC(=O)CCCN(C)C(=O)OCc2ccc(O[C@@H]3O[C@H](C(=O)O)[C@@H](O)[C@H](O)[C@H]3O)c([N+](=O)[O-])c2)NC(=O)[C@H](C)OC(=O)[C@@H](C(C)C)NC(=O)[C@@H](CC(C)C)OC(=O)[C@H](C(C)C)NC(=O)[C@H](C)OC(=O)[C@@H](C(C)C)NC1=O : reported GI50 at 48 h = 0.15 µM

New cases:
Record summary for CC(C)C[C@H]1OC(=O)[C@H](C(C)C)NC(=O)[C@H](C)OC(=O)[C@@H](C(C)C)NC(=O)[C@@H](CC2CCCCC2)OC(=O)[C@H]([C@@H](C)O)NC(=O)[C@H](C)OC(=O)[C@@H](C(C)C)NC(=O)[C@@H](CC(C)C)OC(=O)[C@H](C(C)C)NC(=O)[C@H](C)OC(=O)[C@@H](C(C)C)NC1=O : reported GI50 at 48 h = 0.00335 µM

The measured values listed here are drawn from ChEMBL document CHEMBL3576825.
